Biological target: CB1-receptor (UniProt P20272)
Experiment: binding of the pyrazoline compounds to CB1-receptors (Pharmacological Methods, Part I)
Parameters: other: 10^−7 M; other: 10^−8 M; species or system human or rat
Details: 10^−7 M
Consider the following molecules; for each one, report its Inhibition.
Could you give me the number in %? Just the number is fine.

Record summary for C[C@H]1C(C(=O)NN2CCCC2)=NN(c2ccc(Cl)cc2Cl)[C@H]1c1ccc(Cl)cc1 (relative stereo) : reported Inhibition = 41

Record summary for C[C@@H]1C(C(=O)NN2CCCCCC2)=NN(c2ccc(Cl)cc2Cl)[C@@H]1c1ccc(F)cc1 (stereo in doubt) : reported Inhibition = 36.2

Record summary for COc1ccc([C@@H]2[C@H](C)C(C(=O)N[C@H]3CCCC[C@@H]3O)=NN2c2ccc(Cl)cc2Cl)cc1 (mixture of isomers) [Example 281] : reported Inhibition = 39.0

###

Consider the following compounds; for each one, report its Inhibition.
Molecular target: CB1-receptor (UniProt P20272)
Assay: binding of the pyrazoline compounds to CB1-receptors (Pharmacological Methods, Part I)
Design: other: 10^−7 M; other: 10^−8 M; species or system human or rat
Conditions: 10^−8 M, in %
Form: value (number only, do not type unit).

Record summary for COc1ccc([C@@H]2[C@H](C)C(C(=O)NN3CCCCC3)=NN2c2ccc(Cl)cc2Cl)cc1 (relative stereo) : reported Inhibition = 42.4

Record summary for COc1ccc([C@H]2[C@@H](C)C(C(=O)NN3CC4CCCC4C3)=NN2c2ccc(Cl)cc2Cl)cc1.Cl (relative stereo) : reported Inhibition = 17.9

Record summary for C[C@@H]1C(C(=O)NN2Cc3cccc4cccc(c34)C2)=NN(c2ccc(Cl)cc2Cl)[C@@H]1c1ccc(Cl)cc1 (relative stereo) : reported Inhibition = 35.9

Record summary for C[C@@H]1C(C(=O)N[C@H]2CCCC[C@@H]2OCc2ccccc2)=NN(c2ccc(Cl)cc2Cl)[C@@H]1c1ccc(Cl)cc1 (mixture of isomers) : reported Inhibition = −37

Record summary for COc1ccc([C@@H]2[C@H](C)C(C(=O)NN3CCCCC3)=NN2c2ccc(Cl)cc2Cl)cc1.Cl (relative stereo) : reported Inhibition = 29.2

Record summary for C[C@@H]1C(C(=O)N[C@H]2CCCC[C@@H]2O)=NN(c2ccc(Cl)cc2Cl)[C@@H]1c1ccc(Cl)cc1 (single isomer, unassigned) [Example 129] : reported Inhibition = 11.6

###

Target: CB1-receptor (UniProt P20272)
Experiment: binding of the pyrazoline compounds to CB1-receptors (Pharmacological Methods, Part I)
Design: other: 10^−7 M; other: 10^−8 M; species or system human or rat
Settings: 10^−7 M
Threshold check on Inhibition: strictly below 30% is 1; on or above 30% is 0.

Request: Below 30% on Inhibition? Entry C[C@@H]1C(C(=O)NN2CCCCC2)=NN(c2ccc(Cl)cc2Cl)[C@@H]1c1ccc(F)cc1.Cl (relative stereo)
Response: 0

Request: Below 30% on Inhibition? Entry C[C@@H]1C(C(=O)NN2CCCCC2)=NN(c2ccc(Cl)cc2Cl)[C@H]1c1ccc(O)cc1 (relative stereo)
Response: 1

Request: Below 30% on Inhibition? Entry C[C@H]1C(C(=O)O)=NN(c2ccc(Cl)cc2Cl)[C@H]1c1ccc(Cl)cc1 (racemic)
Response: 1

Request: Below 30% on Inhibition? Entry C[C@@H]1C(C(=O)N[C@H]2C[C@H]3CC[C@]2(C)C3(C)C)=NN(c2ccc(Cl)cc2Cl)[C@@H]1c1ccc(Cl)cc1 (mixture of isomers)
Response: 1

Request: Below 30% on Inhibition? Entry C[C@@H]1C(C(=O)O)=NN(c2ccccc2Cl)[C@@H]1c1ccc(Cl)s1 (relative stereo)
Response: 1

Request: Below 30% on Inhibition? Entry C[C@@H]1C(C(=O)N[C@H]2CCCC[C@@H]2OCc2ccccc2)=NN(c2ccc(Cl)cc2Cl)[C@@H]1c1ccc(Cl)cc1 (mixture of isomers)
Response: 1

Request: Below 30% on Inhibition? Entry COc1ccc([C@H]2[C@@H](C)C(C(=O)NN3CC4CCCC4C3)=NN2c2ccc(Cl)cc2Cl)cc1.Cl (relative stereo)
Response: 0

Request: Below 30% on Inhibition? Entry C[C@H]1C(C(=O)NN2CCc3ccccc32)=NN(c2ccc(Cl)cc2Cl)[C@H]1c1ccc(F)cc1 (relative stereo)
Response: 1

Request: Below 30% on Inhibition? Entry COC[C@H]1CCCN1NC(=O)C1=NN(c2ccc(Cl)cc2Cl)[C@H](c2ccc(Cl)cc2)[C@@H]1C.Cl (mixture of isomers)
Response: 0

Request: Below 30% on Inhibition? Entry COc1ccc([C@H]2[C@@H](C)C(C(=O)NN3CCCCCC3)=NN2c2ccc(Cl)cc2Cl)cc1.Cl (relative stereo)
Response: 0

Request: Below 30% on Inhibition? Entry CC1Cc2ccccc2N1NC(=O)C1=NN(c2ccc(Cl)cc2Cl)[C@@H](c2ccc(Cl)cc2)[C@H]1C (relative stereo)
Response: 0

Request: Below 30% on Inhibition? Entry C[C@@H]1C(C(=O)NN2CCOCC2)=NN(c2ccc(Cl)cc2Cl)[C@@H]1c1ccc(Cl)cc1 (relative stereo)
Response: 0

###

Target: CB1-receptor (UniProt P20272)
Test: binding of the pyrazoline compounds to CB1-receptors (Pharmacological Methods, Part I)
Parameters: IC50; species or system human or rat
Details: radioligand [3H]-CP55940
Reported metric: pIC50
Would you please state pIC50, meaning minus log10 of the concentration in mol/L, as a bare number?

Record summary for COc1ccc([C@H]2[C@@H](C)C(C(=O)NC3CCCCCC3)=NN2c2ccc(Cl)cc2Cl)cc1 (relative stereo) : reported pIC50 = 7.18

###

Target: CB1-receptor (UniProt P20272)
Test: binding of the pyrazoline compounds to CB1-receptors (Pharmacological Methods, Part I)
Design: other: 10^−7 M; other: 10^−8 M; species or system human or rat
Details: 10^−7 M
Consider the following compounds; for each one, report its Inhibition.

Record summary for C[C@H]1C(C(=O)O)=NN(c2ccc(Cl)cc2Cl)[C@H]1c1ccc(F)cc1 (racemic) [Example 221] : reported Inhibition = −6.3%

Record summary for COc1ccc([C@@H]2[C@H](C)C(C(=O)NN3CCCCC3)=NN2c2ccc(Cl)cc2Cl)cc1.Cl (relative stereo) [Example 265] : reported Inhibition = 62%

Record summary for C[C@@H]1C(C(=O)N[C@@H]2CCCC[C@H]2OCc2ccccc2)=NN(c2ccc(Cl)cc2Cl)[C@@H]1c1ccc(Cl)cc1 (mixture of isomers) [Example 437] : reported Inhibition = 40.9%

Record summary for C[C@@H]1C(C(=O)NN2Cc3cccc4cccc(c34)C2)=NN(c2ccc(Cl)cc2Cl)[C@@H]1c1ccc(Cl)cc1 (relative stereo) [Example 105] : reported Inhibition = 31.4%

Record summary for CC1CCCC(NC(=O)C2=NN(c3ccc(Cl)cc3Cl)[C@H](c3ccc(Cl)cc3)[C@@H]2C)C1 (relative stereo) [Example 423] : reported Inhibition = 66.7%

Record summary for COc1ccc([C@@H]2[C@H](C)C(C(=O)NN3CCc4ccccc43)=NN2c2ccc(Cl)cc2Cl)cc1 (relative stereo) [Example 279] : reported Inhibition = 62.4%

###

Consider the following compounds; for each one, report its Inhibition.
Target: CB1-receptor (UniProt P20272)
Assay: binding of the pyrazoline compounds to CB1-receptors (Pharmacological Methods, Part I)
Design: other: 10^−7 M; other: 10^−8 M; species or system human or rat
Settings: 10^−7 M
Where a name gives a salt, the structure may show the parent alone.
Could you give me the number in %? Just the number is fine.

Record summary for C[C@@H]1C(C(=O)NN2CCCCC2)=NN(c2ccc(Cl)cc2Cl)[C@@H]1c1ccc(Cl)cc1 (single isomer, unassigned) [Example 419] : reported Inhibition = 57.1

Record summary for C[C@H]1C(C(=O)NN2CCCCCC2)=NN(c2ccc(Cl)cc2Cl)[C@H]1c1ccc(Br)cc1.Cl (relative stereo) : reported Inhibition = 73

Record summary for COc1ccc([C@@H]2[C@@H](C)C(C(=O)O)=NN2c2ccc(Cl)cc2Cl)cc1 : reported Inhibition = −15.4

Record summary for C[C@@H]1C(C(=O)NN2CCCCCCC2)=NN(c2ccc(Cl)cc2Cl)[C@@H]1c1ccc(Cl)cc1 (relative stereo) : reported Inhibition = 75.5

Record summary for C[C@@H]1C(C(=O)NCC2CCCCC2)=NN(c2ccc(Cl)cc2Cl)[C@@H]1c1ccc(Cl)cc1 (relative stereo) : reported Inhibition = 28.3

Record summary for C[C@H]1C(C(=O)NN2CC3CCCC3C2)=NN(c2ccc(Cl)cc2Cl)[C@H]1c1ccc(Cl)cc1 (relative stereo) : reported Inhibition = 70.6

Record summary for CC1CCCC(C)N1NC(=O)C1=NN(c2ccc(Cl)cc2Cl)[C@H](c2ccc(Cl)cc2)[C@@H]1C (relative stereo) : reported Inhibition = 55.3

Record summary for C[C@H]1C(C(=O)NC2CCCCCC2)=NN(c2ccc(Cl)cc2Cl)[C@H]1c1ccc(Cl)cc1 (relative stereo) : reported Inhibition = 90.8

Record summary for C[C@@H]1C(C(=O)N[C@H]2CCCC[C@@H]2O)=NN(c2ccc(Cl)cc2Cl)[C@@H]1c1ccc(Cl)cc1 (mixture of isomers) [Example 128] : reported Inhibition = 35.3

Record summary for C[C@@H]1C(C(=O)NN2C(=O)c3cccc4cccc(c34)C2=O)=NN(c2ccc(Cl)cc2Cl)[C@@H]1c1ccc(Cl)cc1 (relative stereo) : reported Inhibition = 31.7

Record summary for C[C@H]1C(C(=S)NN2CCCCC2)=NN(c2ccc(Cl)cc2Cl)[C@H]1c1ccc(Cl)cc1 (relative stereo) [Example 379, hydrochloride] : reported Inhibition = 74.5

Record summary for CC[C@H]1C(C(=O)O)=NN(c2ccc(Cl)cc2Cl)[C@H]1c1ccc(Cl)cc1 (racemic) : reported Inhibition = 23

Record summary for COc1ccc([C@@H]2[C@H](C)C(C(=O)N[C@H]3CCCC[C@@H]3O)=NN2c2ccc(Cl)cc2Cl)cc1 (mixture of isomers) [Example 282] : reported Inhibition = 44.3
